- Tested on: Human alphaherpesvirus 2
- ASSAY_EXPLANATION: Evaluation of antiviral activity against Herpes simplex virus type 2 (HSV-2) strain G
- Type: functional
Quick rule for you: MIC50 under 0.4 µg/mL gets true (1), anything else gets false (0).

Problem: Would you kindly verify if MIC50 of "O=c1[nH]c(=O)n([C@H]2C[C@H](O)[C@@H](CO)O2)cc1I" is strictly less than 0.4 µg/mL?
Result: true (1)

Problem: Would you kindly verify if MIC50 of O=c1[nH]c(=O)n([C@H]2C[C@@H]3OP(=O)(OCc4ccccc4)OC[C@H]3O2)cc1I (stereo partly specified) is strictly less than 0.4 µg/mL?
Result: false (0)

Problem: Would you kindly verify if MIC50 of "O=c1[nH]c(=O)n([C@H]2C[C@H](O)[C@@H](COP(=O)(O)O)O2)cc1Br" is strictly less than 0.4 µg/mL?
Result: true (1)

Problem: Would you kindly verify if MIC50 of "O=c1[nH]c(=O)n([C@H]2C[C@H](O)[C@@H](CO)O2)cc1/C=C/Br" is strictly less than 0.4 µg/mL?
Result: false (0)

Problem: Would you kindly verify if MIC50 of COP1(=O)OC[C@H]2O[C@@H](n3cc(I)c(=O)[nH]c3=O)C[C@@H]2O1 (stereo partly specified) is strictly less than 0.4 µg/mL?
Result: false (0)

Problem: Would you kindly verify if MIC50 of "O=c1[nH]c(=O)n([C@H]2C[C@H](O)[C@@H](CO)O2)cc1Br" is strictly less than 0.4 µg/mL?
Result: true (1)

Problem: Would you kindly verify if MIC50 of "N.O=c1[nH]c(=O)n([C@H]2C[C@@H]3O[PH](O)(O)OC[C@H]3O2)cc1F" is strictly less than 0.4 µg/mL?
Result: false (0)

Problem: Would you kindly verify if MIC50 of "N.O=c1[nH]c(=O)n([C@H]2C[C@@H]3O[PH](O)(O)OC[C@H]3O2)cc1C(F)(F)F" is strictly less than 0.4 µg/mL?
Result: false (0)

Problem: Would you kindly verify if MIC50 of "N.O=c1[nH]c(=O)n([C@H]2C[C@@H]3O[PH](O)(O)OC[C@H]3O2)cc1Cl" is strictly less than 0.4 µg/mL?
Result: false (0)

Problem: Would you kindly verify if MIC50 of "O=c1[nH]c(=O)n([C@H]2C[C@H](O)[C@@H](COP(=O)(O)O)O2)cc1/C=C/Br" is strictly less than 0.4 µg/mL?
Result: false (0)

----------
Please respond with reported IC50 for every item in the list.
- Test system: L1210
- ASSAY_EXPLANATION: Evaluation of antitumor activity against mutant murine leukemia L1210 cells
- Format: functional
- CONDITION_SUMMARY: Mus musculus, read-out: ID50 (the source's name)

Problem: Reported IC50 for "O=c1[nH]c(=O)n([C@H]2C[C@H](O)[C@@H](CO)O2)cc1I" : what is it?
Result: > 500 µg/mL

Problem: Reported IC50 for "N.O=c1[nH]c(=O)n([C@H]2C[C@@H]3O[PH](O)(O)OC[C@H]3O2)cc1Br" : what is it?
Result: > 1000 µg/mL

Problem: Reported IC50 for O=c1[nH]c(=O)n([C@H]2C[C@H](O)[C@@H](COP(=O)(O)O)O2)cc1F [5-FLUORODEOXYURIDYLATE] : what is it?
Result: 3 µg/mL

Problem: Reported IC50 for O=c1[nH]c(=O)n([C@H]2C[C@@H]3OP(=O)(OCc4ccccc4)OC[C@H]3O2)cc1I (some centres undefined) : what is it?
Result: > 100 µg/mL

Problem: Reported IC50 for "N.O=c1[nH]c(=O)n([C@H]2C[C@@H]3O[PH](O)(O)OC[C@H]3O2)cc1C(F)(F)F" : what is it?
Result: 22 µg/mL

Problem: Reported IC50 for "O=c1[nH]c(=O)n([C@H]2C[C@H](O)[C@@H](CO)O2)cc1Br" : what is it?
Result: > 1000 µg/mL

Problem: Reported IC50 for COP1(=O)OC[C@H]2O[C@@H](n3cc(Br)c(=O)[nH]c3=O)C[C@@H]2O1 (some centres undefined) : what is it?
Result: > 100 µg/mL

Problem: Reported IC50 for "N.O=c1[nH]c(=O)n([C@H]2C[C@@H]3O[PH](O)(O)OC[C@H]3O2)cc1F" : what is it?
Result: 7.4 µg/mL

Problem: Reported IC50 for "O=c1[nH]c(=O)n([C@H]2C[C@H](O)[C@@H](COP(=O)(O)O)O2)cc1I" : what is it?
Result: > 500 µg/mL

----------
- MEASURED_TARGET: Thymidylate synthase (Mus musculus)
- ASSAY_EXPLANATION: Compound was evaluated for the inhibition of L1210 Thymidylate synthase
Please respond with reported Ki/Km for every item in the list.
# output: bare number, no unit

Problem: Provide the documented Ki/Km with Thymidylate synthase (Mus musculus) as the system for "N.O=c1[nH]c(=O)n([C@H]2C[C@@H]3O[PH](O)(O)OC[C@H]3O2)cc1C(F)(F)F"
Result: 30.4

Problem: Provide the documented Ki/Km with Thymidylate synthase (Mus musculus) as the system for "O=c1[nH]c(=O)n([C@H]2C[C@H](O)[C@@H](COP(=O)(O)O)O2)cc1C(F)(F)F"
Result: 0.061

Problem: Provide the documented Ki/Km with Thymidylate synthase (Mus musculus) as the system for O=c1[nH]c(=O)n([C@H]2C[C@H](O)[C@@H](COP(=O)(O)O)O2)cc1F [5-FLUORODEOXYURIDYLATE]
Result: 0.018

Problem: Provide the documented Ki/Km with Thymidylate synthase (Mus musculus) as the system for "O=c1[nH]c(=O)n([C@H]2C[C@H](O)[C@@H](COP(=O)(O)O)O2)cc1Br"
Result: 2.16

----------
- Test system: Raji
- ASSAY_EXPLANATION: Evaluation of antitumor activity against thymidine kinase deficient Raji cell line
- Type: functional
- CONDITION_SUMMARY: Homo sapiens, read-out: ID50 (the source's name)
Please respond with reported IC50 for every item in the list.

Problem: Reported IC50 for "O=c1[nH]c(=O)n([C@H]2C[C@H](O)[C@@H](COP(=O)(O)O)O2)cc1C(F)(F)F" : what is it?
Result: 212 µg/mL

Problem: Reported IC50 for "N.O=c1[nH]c(=O)n([C@H]2C[C@@H]3O[PH](O)(O)OC[C@H]3O2)cc1Br" : what is it?
Result: > 1000 µg/mL

Problem: Reported IC50 for "N.O=c1[nH]c(=O)n([C@H]2C[C@@H]3O[PH](O)(O)OC[C@H]3O2)cc1Cl" : what is it?
Result: > 1000 µg/mL

Problem: Reported IC50 for "N.O=c1[nH]c(=O)n([C@H]2C[C@@H]3O[PH](O)(O)OC[C@H]3O2)cc1I" : what is it?
Result: > 500 µg/mL

Problem: Reported IC50 for O=c1[nH]c(=O)n([C@H]2C[C@@H]3OP(=O)(OCc4ccccc4)OC[C@H]3O2)cc1I (stereo not given in full) : what is it?
Result: > 100 µg/mL

----------
- Test system: Raji
- ASSAY_EXPLANATION: Evaluation of antitumor activity against thymidine kinase deficient Raji cell line
- Assay type: functional
- CONDITION_SUMMARY: Homo sapiens, read-out: ID50 (the source's name)
ENDPOINT_LABEL: IC50

Problem: Reported IC50 for "O=c1[nH]c(=O)n([C@H]2C[C@H](O)[C@@H](COP(=O)(O)O)O2)cc1Br" : what is it?
Result: > 1000 µg/mL

Problem: Reported IC50 for "O=c1[nH]c(=O)n([C@H]2C[C@H](O)[C@@H](COP(=O)(O)O)O2)cc1I" : what is it?
Result: > 500 µg/mL

Problem: Reported IC50 for "O=c1[nH]c(=O)n([C@H]2C[C@H](O)[C@@H](CO)O2)cc1I" : what is it?
Result: > 500 µg/mL

Problem: Reported IC50 for "N.O=c1[nH]c(=O)n([C@H]2C[C@@H]3O[PH](O)(O)OC[C@H]3O2)cc1C(F)(F)F" : what is it?
Result: ≥ 500 µg/mL

Problem: Reported IC50 for "O=c1[nH]c(=O)n([C@H]2C[C@H](O)[C@@H](CO)O2)cc1Br" : what is it?
Result: > 1000 µg/mL

----------
Please respond with reported MIC50 for every item in the list.
- System: Human alphaherpesvirus 1
- ASSAY_EXPLANATION: Evaluation of antiviral activity against Herpes simplex virus type 1 (HSV-1) strain KOS.
- Type: functional
# value in µg/mL; strip the unit string

Problem: Reported MIC50 for "N.O=c1[nH]c(=O)n([C@H]2C[C@@H]3O[PH](O)(O)OC[C@H]3O2)cc1Br" : what is it?
Result: 2

Problem: Reported MIC50 for "O=c1[nH]c(=O)n([C@H]2C[C@H](O)[C@@H](CO)O2)cc1Cl" : what is it?
Result: 2

Problem: Reported MIC50 for "O=c1[nH]c(=O)n([C@H]2C[C@H](O)[C@@H](COP(=O)(O)O)O2)cc1/C=C/Br" : what is it?
Result: 0.02

Problem: Reported MIC50 for O=c1[nH]c(=O)n([C@H]2C[C@H](O)[C@@H](COP(=O)(O)O)O2)cc1F [5-FLUORODEOXYURIDYLATE] : what is it?
Result: 10

Problem: Reported MIC50 for "O=c1[nH]c(=O)n([C@H]2C[C@H](O)[C@@H](CO)O2)cc1Br" : what is it?
Result: 0.2

Problem: Reported MIC50 for "O=c1[nH]c(=O)n([C@H]2C[C@H](O)[C@@H](COP(=O)(O)O)O2)cc1C(F)(F)F" : what is it?
Result: 0.7

Problem: Reported MIC50 for "N.O=c1[nH]c(=O)n([C@H]2C[C@@H]3O[PH](O)(O)OC[C@H]3O2)cc1I" : what is it?
Result: 2

Problem: Reported MIC50 for "N.O=c1[nH]c(=O)n([C@H]2C[C@@H]3O[PH](O)(O)OC[C@H]3O2)cc1C(F)(F)F" : what is it?
Result: 10

Problem: Reported MIC50 for O=c1[nH]c(=O)n([C@H]2C[C@@H]3OP(=O)(OCc4ccccc4)OC[C@H]3O2)cc1I (stereo partly specified) : what is it?
Result: 20

Problem: Reported MIC50 for "N.O=c1[nH]c(=O)n([C@H]2C[C@@H]3O[PH](O)(O)OC[C@H]3O2)cc1Cl" : what is it?
Result: 20
